Attribution: the supplement of paper PMC7366291

- Test system: Danio rerio Tg(wt1b:EGFP) embryo, pronephros
- assayName: glomerular width (mean of left and right), fold change vs DMSO control; higher = wider glomerulus
- measurementSetup: 25 µM; exposure: 24-48 hpf
Counter-ions that a name gives are not always drawn.
valueType: glomerular width

Example entries begin here.
molecule: CC(C(=O)O)c1ccc(C(=O)c2cccs2)cc1 (stereo not given)
measuredResult: 1.02
--
molecule: CO/N=C(\C(=O)N[C@@H]1C(=O)N2C(C(=O)OC(C)OC(C)=O)=C(COC(N)=O)CS[C@H]12)c1ccco1 (stereo not given in full)
measuredResult: 1.02
--
molecule: CC(C)(O/N=C(\C(=O)N[C@@H]1C(=O)N2C(C(=O)[O-])=C(C[n+]3ccccc3)CS[C@H]12)c1csc(N)n1)C(=O)O [Ceftazidime pentahydrate]
measuredResult: 0.993
--
molecule: CC(=C(CCO)SSCC1CCCO1)N(C=O)Cc1cnc(C)nc1N (stereo in doubt) [Fursultiamine Hydrochloride]
measuredResult: 0.996

Task item: Consider the molecule CCOC(=O)[C@H](CCc1ccccc1)N[C@@H](C)C(=O)N1Cc2ccccc2C[C@H]1C(=O)O [Quinapril hydrochloride] . State its measured glomerular width.
Reply: 0.987
